Field: pKi. Provide a value for each of the compounds that follow.
Target: glucocorticoid receptor (GR) (Homo sapiens, UniProt P04150)
Construct: endogenous in cells; host or cells: HeLa (ATCC) cell lysate supernatant
Sequence (P04150 whole entry): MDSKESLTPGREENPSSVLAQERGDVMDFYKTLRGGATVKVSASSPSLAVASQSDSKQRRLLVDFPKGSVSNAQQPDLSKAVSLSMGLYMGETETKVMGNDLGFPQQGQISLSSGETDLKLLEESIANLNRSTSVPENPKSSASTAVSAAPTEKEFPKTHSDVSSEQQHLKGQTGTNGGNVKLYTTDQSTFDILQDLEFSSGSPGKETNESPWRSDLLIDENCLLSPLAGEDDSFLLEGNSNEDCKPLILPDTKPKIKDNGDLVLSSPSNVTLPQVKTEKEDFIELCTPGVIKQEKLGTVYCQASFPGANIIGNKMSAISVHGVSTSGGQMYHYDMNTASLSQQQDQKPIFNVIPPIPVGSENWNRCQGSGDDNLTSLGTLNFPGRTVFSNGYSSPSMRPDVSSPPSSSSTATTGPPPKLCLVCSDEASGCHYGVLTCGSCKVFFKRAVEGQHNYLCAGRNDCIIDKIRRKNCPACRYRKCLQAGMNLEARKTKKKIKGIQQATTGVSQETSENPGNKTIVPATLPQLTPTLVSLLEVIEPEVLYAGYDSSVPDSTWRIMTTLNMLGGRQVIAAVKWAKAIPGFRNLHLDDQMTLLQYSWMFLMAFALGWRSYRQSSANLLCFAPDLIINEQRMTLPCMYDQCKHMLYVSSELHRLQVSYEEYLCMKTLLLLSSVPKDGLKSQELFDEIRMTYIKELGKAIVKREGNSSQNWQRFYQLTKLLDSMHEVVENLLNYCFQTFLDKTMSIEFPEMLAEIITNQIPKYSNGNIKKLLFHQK
Assay: Ligand binding assay (GR BIND), 3H-dexamethasone displacement, HeLa cell lysate
Settings: Table 2; prior-art comparison compounds
Answers are plain numbers, as −log10 of the molar value.

compound	property	reported
C[C@]12Cc3cnn(-c4ccc(F)cc4)c3C=C1CC[C@@]2(O)CCc1ccccc1 [Example 2 WO 2004/075840 A2, reference compound]	pKi	8.28
C[C@]12Cc3cnn(-c4ccc(F)cc4)c3C=C1CCC[C@@]2(O)CCc1ccccc1Cl [Example 41 WO 2004/075840 A2, reference compound]	pKi	9.49

I would be grateful if you could provide pKi for each of the following entries.
1. C[C@]12Cc3cnn(-c4ccc(F)cc4)c3C=C1CC[C@@]2(O)CCc1ccccc1F [Example 70 WO 2004/075840 A2, reference compound]
2. C[C@]12Cc3cnn(-c4ccc(F)cc4)c3C=C1CCC[C@@H]2[C@@H](O)Cc1ccccc1 [Example 22 WO 03/086294 A2, reference compound]
3. C[C@]12Cc3cnn(-c4ccc(F)cc4)c3C=C1CC[C@@]2(O)CCc1ccccc1Cl [Example 40 WO 2004/075840 A2, reference compound]
4. COc1ccccc1CC[C@]1(O)CCC2=Cc3c(cnn3-c3ccc(F)cc3)C[C@@]21C [Example 58 WO 2004/075840 A2, reference compound]
5. C[C@]12Cc3cnn(-c4ccc(F)cc4)c3C=C1CC[C@@]2(O)CCc1ccc(F)cc1 [Example 46 WO 2004/075840 A2, reference compound]

-- reply
1: 8.53; 2: 8.90; 3: 7.68; 4: 9.55; 5: 9.00
